- Subject of test: CDK12 wt/CycK (Homo sapiens (Human))
- Protocol description: Radiometric protein kinase assay (33PanQinase Activity Assay), Assay Condition A (thiol containing conditions)
- Assay type: biochemical
- Measurement parameters: thiol containing conditions (1.2 mM DTT), ATP 0.3 μM; read-out: CDK12 IC50 Condition A
Below, each entry is listed with its recorded IC50.

{"columns": ["Smiles structure", "Subject of test", "IC50"],
 "data": [
  ["C=CC(=O)Nc1ccc(C(=O)N2CC[C@@H](Nc3ncc(Cl)c(O)n3)C2)cc1", "CDK12 wt/CycK (Homo sapiens (Human))", "30000 to 100000 nM"],
  ["C=CC(=O)Nc1ccc(C(=O)N2CC[C@@H](Nc3ncc(C(F)(F)F)c(NC)n3)C2)cc1", "CDK12 wt/CycK (Homo sapiens (Human))", "< 100 nM"],
  ["C=CC(=O)Nc1ccc(C(=O)N2CC[C@@H](Nc3ncc(Cl)c(OC)n3)C2)cc1C", "CDK12 wt/CycK (Homo sapiens (Human))", "< 100 nM"]
]}

// lookup IC50 for C=CC(=O)Nc1ccc(C(=O)N2CC[C@@H](Nc3ncc(Cl)c(OCCOCC)n3)C2)cc1
100 to 1000 nM

// lookup IC50 for C=CC(=O)Nc1ccc(C(=O)N2CC[C@@H](Nc3ncc(Cl)c(OCCOC)n3)C2)cc1
< 100 nM

// lookup IC50 for C=CC(=O)Nc1ccc(C(=O)N2CC[C@@H](Nc3ncc(Cl)c(N4CCC4)n3)C2)cc1
100 to 1000 nM

// lookup IC50 for C=CC(=O)Nc1ccc(C(=O)N2CC[C@@H](Nc3cc(C)c(Cl)cn3)C2)cc1
100 to 1000 nM

* * *

- Subject of test: CDK12 (Homo sapiens (Human), UniProt Q9NYV4)
- Sequence (Q9NYV4 whole entry): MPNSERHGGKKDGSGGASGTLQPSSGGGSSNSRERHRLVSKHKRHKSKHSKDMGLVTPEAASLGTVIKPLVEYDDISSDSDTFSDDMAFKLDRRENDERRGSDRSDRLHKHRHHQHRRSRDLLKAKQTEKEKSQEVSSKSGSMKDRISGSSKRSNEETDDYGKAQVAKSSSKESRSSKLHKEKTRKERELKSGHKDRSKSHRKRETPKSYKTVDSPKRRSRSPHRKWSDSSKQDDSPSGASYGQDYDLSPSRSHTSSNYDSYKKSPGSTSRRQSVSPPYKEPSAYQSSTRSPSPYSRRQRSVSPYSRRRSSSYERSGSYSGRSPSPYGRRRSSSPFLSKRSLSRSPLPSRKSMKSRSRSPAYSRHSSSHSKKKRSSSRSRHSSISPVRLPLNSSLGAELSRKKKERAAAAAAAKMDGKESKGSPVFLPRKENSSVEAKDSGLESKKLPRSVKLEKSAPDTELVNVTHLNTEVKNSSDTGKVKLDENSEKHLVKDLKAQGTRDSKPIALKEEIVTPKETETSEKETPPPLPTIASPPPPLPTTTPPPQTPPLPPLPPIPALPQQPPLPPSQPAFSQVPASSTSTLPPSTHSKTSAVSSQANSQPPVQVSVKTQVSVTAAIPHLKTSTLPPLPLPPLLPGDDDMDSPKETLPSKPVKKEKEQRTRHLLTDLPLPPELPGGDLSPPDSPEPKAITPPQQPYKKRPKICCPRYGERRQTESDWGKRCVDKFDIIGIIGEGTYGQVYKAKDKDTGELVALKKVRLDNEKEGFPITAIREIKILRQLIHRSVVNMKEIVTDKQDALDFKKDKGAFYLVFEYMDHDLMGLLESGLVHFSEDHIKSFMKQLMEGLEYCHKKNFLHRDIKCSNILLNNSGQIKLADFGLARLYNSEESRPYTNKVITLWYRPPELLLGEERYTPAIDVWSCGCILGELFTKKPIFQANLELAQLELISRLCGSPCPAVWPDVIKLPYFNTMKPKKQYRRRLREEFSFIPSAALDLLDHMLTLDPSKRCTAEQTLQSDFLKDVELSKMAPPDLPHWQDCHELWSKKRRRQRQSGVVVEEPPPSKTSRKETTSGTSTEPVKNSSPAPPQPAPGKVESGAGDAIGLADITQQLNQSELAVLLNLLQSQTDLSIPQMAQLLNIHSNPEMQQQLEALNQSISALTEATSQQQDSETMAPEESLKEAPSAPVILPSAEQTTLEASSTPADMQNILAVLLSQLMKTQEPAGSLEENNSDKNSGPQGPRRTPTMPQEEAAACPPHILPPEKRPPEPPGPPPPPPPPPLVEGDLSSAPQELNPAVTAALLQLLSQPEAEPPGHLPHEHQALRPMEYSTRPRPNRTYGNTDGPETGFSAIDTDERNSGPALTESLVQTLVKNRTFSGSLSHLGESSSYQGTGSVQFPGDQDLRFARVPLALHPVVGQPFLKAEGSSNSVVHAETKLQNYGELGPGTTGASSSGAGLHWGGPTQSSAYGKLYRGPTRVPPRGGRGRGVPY
- Sequence (O75909 whole entry partner): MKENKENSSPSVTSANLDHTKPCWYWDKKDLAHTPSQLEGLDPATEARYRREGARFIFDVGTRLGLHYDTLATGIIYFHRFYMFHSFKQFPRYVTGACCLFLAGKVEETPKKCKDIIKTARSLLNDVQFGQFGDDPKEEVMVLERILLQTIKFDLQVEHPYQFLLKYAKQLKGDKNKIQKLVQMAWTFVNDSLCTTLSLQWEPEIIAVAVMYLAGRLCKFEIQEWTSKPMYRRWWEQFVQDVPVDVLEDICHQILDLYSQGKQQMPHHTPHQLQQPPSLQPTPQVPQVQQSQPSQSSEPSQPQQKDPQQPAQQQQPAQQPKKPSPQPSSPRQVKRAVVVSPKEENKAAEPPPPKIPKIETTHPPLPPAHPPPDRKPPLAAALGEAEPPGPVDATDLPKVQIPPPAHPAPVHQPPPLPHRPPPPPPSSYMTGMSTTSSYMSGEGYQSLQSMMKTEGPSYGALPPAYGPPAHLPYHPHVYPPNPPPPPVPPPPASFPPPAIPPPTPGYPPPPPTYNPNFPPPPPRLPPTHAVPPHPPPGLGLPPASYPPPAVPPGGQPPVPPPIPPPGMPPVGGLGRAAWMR
Experimental readout: IC50

{"columns": ["Smiles structure", "Assay result"],
 "data": [
  ["C=CC(=O)Nc1ccc(C(=O)N2CC[C@@H](Nc3ncc(Cl)cn3)C2)cc1-c1cnn(C)c1", "100 to 1000 nM"],
  ["C=CC(=O)Nc1ccc(C(=O)N2CC[C@@H](Nc3ncc(C)cn3)C2)cc1", "100 to 1000 nM"],
  ["C=CC(=O)Nc1ccc(C(=O)N2CCC[C@@H](Nc3nccc(N4CCOCC4)n3)C2)cc1", "30000 to 100000 nM"]
]}

Continue with the compound presented below.
// lookup IC50 for C=CC(=O)Nc1ncc(C(=O)N2CC[C@@H](Nc3ncc(Cl)c(OC)n3)C2)s1
100 to 1000 nM

* * *

- Subject of test: CDK12 wt/CycK (Homo sapiens (Human))
- Protocol description: Radiometric protein kinase assay (33PanQinase Activity Assay), Assay Condition A (thiol containing conditions)
- Format: biochemical
- Measurement parameters: thiol containing conditions (1.2 mM DTT), ATP 0.3 μM; read-out: CDK12 IC50 Condition A
Experimental readout: IC50

{"columns": ["Molecule", "Subject of test", "Experimental readout", "Assay result"],
 "data": [
  ["C=CC(=O)Nc1ccc(C(=O)N2CC[C@@H](Nc3ncc(Cl)c(OCCOCC)n3)C2)cc1N1CCN(C)CC1", "CDK12 wt/CycK (Homo sapiens (Human))", "IC50", "100 to 1000 nM"],
  ["N#CCC(=O)Nc1ccc(C(=O)N2CC[C@@H](Nc3ncc(Cl)cn3)C2)cc1", "CDK12 wt/CycK (Homo sapiens (Human))", "IC50", "100 to 1000 nM"],
  ["C=CC(=O)Nc1ccc(C(=O)N2CC[C@@H](Nc3ncc(Cl)c(OCC)n3)C2)cc1OC1CCOC1 (stereo partly shown)", "CDK12 wt/CycK (Homo sapiens (Human))", "IC50", "< 100 nM"],
  ["C=CC(=O)Nc1ccc(C(=O)N2CC[C@@H](Nc3ncc(Cl)c(OCCC#N)n3)C2)cc1", "CDK12 wt/CycK (Homo sapiens (Human))", "IC50", "< 100 nM"],
  ["CN(C)C/C=C/C(=O)Nc1ccc(C(=O)N2CC[C@@H](Nc3ncc(Cl)cn3)C2)cc1", "CDK12 wt/CycK (Homo sapiens (Human))", "IC50", "1000 to 10000 nM"]
]}

// lookup IC50 for C=CC(=O)Nc1ccc(C(=O)N2CC[C@@H](Nc3ncc(Br)cn3)C2)cc1O[C@H]1CCN(C)C1
< 100 nM

// lookup IC50 for C=CC(=O)Nc1ccc(C(=O)N2CC[C@@H](Nc3ncc(Br)cn3)C2)cc1N(C)CCN(C)C
1000 to 10000 nM

* * *

- Subject of test: CDK12 wt/CycK (Homo sapiens (Human))
- Protocol description: Radiometric protein kinase assay (33PanQinase Activity Assay), Assay Condition A (thiol containing conditions)
- Format: biochemical
Below, each entry is listed with its recorded IC50.

The cases that follow already have their IC50 on record.
{"columns": ["Smiles structure", "IC50"],
 "data": [
  ["C=CC(=O)Nc1ccc(C(=O)N2CC[C@@H](Nc3ncc(Cl)c(OCC)n3)C2)cc1OCCN(C)C", "< 100 nM"],
  ["C=CC(=O)Nc1ccc(C(=O)N2CC[C@@H](Nc3ncc(Cl)cn3)C2)cc1OCCN(C)C", "100 to 1000 nM"],
  ["C=CC(=O)Nc1ccc(C(=O)N2CC[C@@H](Nc3ncc(C#N)cn3)C2)cc1OCCN(C)C", "100 to 1000 nM"],
  ["C=CC(=O)Nc1ccc(C(=O)N2CC[C@@H](Nc3ccc(C#N)cn3)C2)cc1", "100 to 1000 nM"],
  ["C=CC(=O)Nc1ccc(C(=O)N2CC[C@@H](Nc3ncc(Br)cn3)C2)cc1OCCN1CCOCC1", "100 to 1000 nM"]
]}

// lookup IC50 for [2H]C([2H])([2H])Oc1nc(N[C@@H]2CCN(C(=O)c3ccc(NC(=O)C#C)cc3)C2)ncc1Cl
< 100 nM

// lookup IC50 for C=CC(=O)Nc1ccc(C(=O)N2CC[C@@](C)(Nc3ncc(Cl)cn3)C2)cc1
10000 to 30000 nM

* * *

Below, each entry is listed with its recorded IC50.
- Subject of test: CDK12 wt/CycK (Homo sapiens (Human), UniProt Q9NYV4)
- Protocol description: Radiometric protein kinase assay (33PanQinase Activity Assay), Assay Condition A (thiol containing conditions)
- Assay type: biochemical
- Measurement parameters: thiol containing conditions (1.2 mM DTT), ATP 0.3 μM; read-out: CDK12 IC50 Condition A

The cases that follow already have their IC50 on record.
{"columns": ["Molecule", "IC50"],
 "data": [
  ["COc1nc(N[C@@H]2CCN(C(=O)c3ccc(NC(=O)/C=C/CN(C)C)cc3)C2)ncc1Cl [Example 115]", "100 to 1000 nM"],
  ["C=CC(=O)Nc1ccc(C(=O)N2CC[C@@H](Nc3ncc(F)c(OC)n3)C2)cc1 [Example 59]", "1000 to 10000 nM"],
  ["C=CC(=O)Nc1ccc(C(=O)N2CC[C@@H](Nc3ncc(Br)cn3)C2)cc1 [Example 19]", "< 100 nM"],
  ["[2H]C([2H])([2H])Oc1nc(N[C@@H]2CCN(C(=O)c3ccc(NC(=O)/C=C/CN(C)C)cc3)C2)ncc1Cl [Example 114]", "100 to 1000 nM"],
  ["C=CC(=O)Nc1ccc(C(=O)N2CC[C@@H](Nc3ncc(C4CC4)cn3)C2)cc1 [Example 58]", "100 to 1000 nM"],
  ["C=CC(=O)Nc1ccc(C(=O)N2CC[C@](C)(Nc3ncc(Cl)cn3)C2)cc1 [Example 108]", "30000 to 100000 nM"]
]}

// lookup IC50 for COc1nc(N[C@@H]2CCN(C(=O)c3ccc(NC(=O)/C=C/CN4CCOCC4)cn3)C2)ncc1Cl [Example 174]
100 to 1000 nM

// lookup IC50 for C=CC(=O)Nc1ccc(C(=O)N2C[C@H](Nc3ncc(Cl)c(OC)n3)C[C@H]2C)cc1 [Example 183]
< 100 nM

// lookup IC50 for C=CC(=O)Nc1ccc(C(=O)N2CC[C@@H](Nc3ncc(C#N)c(OC)n3)C2)cc1OCCN(C)C [Example 165]
< 100 nM

// lookup IC50 for O=C(Nc1ccc(C(=O)N2CC[C@@H](Nc3ncc(Cl)cn3)C2)cc1)C1CO1 (stereo partly shown) [Example 141]
1000 to 10000 nM

// lookup IC50 for COc1nc(N[C@@H]2CCN(C(=O)c3ccc(NC(=O)/C=C/CN4CC[C@H](F)C4)cn3)C2)ncc1Cl [Example 171]
100 to 1000 nM

// lookup IC50 for C=CC(=O)Nc1ccc(C(=O)N2CC[C@@H](Nc3ncc(Cl)c(OCC)n3)C2)cc1N1CCN(C)CC1 [Example 119]
100 to 1000 nM

// lookup IC50 for C=CC(=O)Nc1ccc(C(=O)N2CC[C@@H](Nc3ncc(Cl)c(Oc4ccccc4)n3)C2)cc1 [Example 95]
< 100 nM

// lookup IC50 for C=CC(=O)N(C)c1ccc(C(=O)N2CC[C@@H](Nc3ncc(Cl)cn3)C2)cc1 [Example 28]
100 to 1000 nM

// lookup IC50 for C#Cc1cnc(N[C@@H]2CCN(C(=O)c3ccc(NC(=O)C=C)cc3)C2)nc1 [Example 181]
< 100 nM
